# key: entry, value: reverse-splicing fitness
B1: Azoarcus group I ribozyme (parent)
chain: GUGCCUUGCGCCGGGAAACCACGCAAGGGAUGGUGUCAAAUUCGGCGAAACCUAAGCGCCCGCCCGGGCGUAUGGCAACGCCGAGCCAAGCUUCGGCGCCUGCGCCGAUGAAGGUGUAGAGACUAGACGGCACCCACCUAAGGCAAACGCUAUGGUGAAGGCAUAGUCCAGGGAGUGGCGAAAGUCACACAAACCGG

- Variants of: B1
- test_method_notes: reverse-splicing fitness (ratio to wild type); higher = more active; in vitro selection; Mg2+ level not given
Please give only the number in your answer, with no unit.

Illustrative cases are given below, each with its answer.
C82A A111C A120U C169A U176G :: 0.00184
C82U A111G C150U :: 0.224
C82A A145U U176G :: 0.157
C82G A111U A120C A145G C150A C169A U176C :: 0.026
A111C A120C C150U C169G U176C :: 0.0164

The value of reverse-splicing fitness measured for the variant A120G A145C C150U C169U U176A turned out to be 0.0904
